test system: KATO III; test: MTS assay, KATO III cells; type: cell-based; conditions: Homo sapiens, 72 hours, read-out: KATO III, MTS cell kill % inhibition
// reported inhibition at 10 µM per item
Outcome Measure: inhibition at 10 µM

In [3]: df
Out[3]:
                             smiles_notation      outcome_measure   obs_value
 0  O=C(NCCCN1CCOCC1)c1ccc2[nH]c(-c3ccc[nH]c3=O)c(-c3ccc(F)cc3F)c2c1  inhibition at 10 µM       < 50%
 1  COC(=O)c1ccc2[nH]c(-c3ccc[nH]c3=O)c(-c3ccc(-c4ccccc4)cc3)c2c1  inhibition at 10 µM       < 50%
 2  O=C(c1ccc2[nH]c(-c3ccc[nH]c3=O)c(-c3ccc(-c4ccccc4)cc3)c2c1)N1CCN(CCN2CCOCC2)CC1  inhibition at 10 µM  80 to 100%
 3  O=C(NC1CCC1)c1ccc2[nH]c(-c3ccc[nH]c3=O)c(-c3ccccc3)c2c1  inhibition at 10 µM  80 to 100%
 4  O=C(NCCc1ccccn1)c1ccc2[nH]c(-c3ccc[nH]c3=O)c(-c3ccc(-c4ccccc4)cc3)c2c1  inhibition at 10 µM  80 to 100%
 5  O=C(NCCCN1CCOCC1)c1ccc2[nH]c(-c3ccc[nH]c3=O)c(-c3ccc(Cl)cc3)c2c1  inhibition at 10 µM       < 50%
 6  Cc1ccc(-c2c(-c3ccc[nH]c3=O)[nH]c3ccc(C(=O)NCCCN4CCOCC4)cc23)cc1  inhibition at 10 µM  80 to 100%
 7  CN(C)CCCNCc1ccc2[nH]c(-c3ccc[nH]c3=O)c(-c3ccc(-c4ccccc4)cc3)c2c1  inhibition at 10 µM       < 50%
 8  COc1ccc(-c2c(-c3ccc[nH]c3=O)[nH]c3ccc(C(=O)NCCCN4CCOCC4)cc23)cc1OC  inhibition at 10 µM       < 50%
 9  O=C(NCCCN1CCOCC1)c1cc2c3c(c1)c(-c1ccccc1)c(-c1ccc[nH]c1=O)n3CCC2  inhibition at 10 µM       < 50%
10  O=C(NCCCN1CCOCC1)c1ccc2[nH]c(-c3ccc[nH]c3=O)c(-c3ccc4ncccc4c3)c2c1  inhibition at 10 µM  80 to 100%
11  O=C(NCCCN1CCOCC1)c1ccc2[nH]c(-c3ccc[nH]c3=O)c(-c3ccc(Cl)c(Cl)c3)c2c1  inhibition at 10 µM  80 to 100%
12  Cc1ccccc1-c1c(-c2ccc[nH]c2=O)[nH]c2ccc(C(=O)NCCCN3CCOCC3)cc12  inhibition at 10 µM       < 50%
13  COc1ccc(NC(=O)c2ccc3[nH]c(-c4ccc[nH]c4=O)c(-c4ccccc4)c3c2)cc1  inhibition at 10 µM  80 to 100%
14  O=C(NCCCN1CCOCC1)c1ccc2[nH]c(-c3ccc[nH]c3=O)c(-c3ccccc3)c2c1  inhibition at 10 µM  80 to 100%
15  O=C(NCc1ccccc1)c1ccc2[nH]c(-c3ccc[nH]c3=O)c(-c3ccc(-c4ccccc4)cc3)c2c1  inhibition at 10 µM       < 50%
16  O=C(c1ccccc1)N1CCC(c2c(-c3ccc[nH]c3=O)[nH]c3ccccc23)CC1  inhibition at 10 µM       < 50%

Where these numbers come from: patent US8410144B2
